Parameter: Plant response rating, Soybean. Scope: all listed entries.
test system: soybean; assay: Test C pre-/postemergence herbicide test; assay type: in vivo, Glycine max; conditions: Postemergence; 250 g ai/ha; scale 0 to 100 (0 no effect, 100 complete control)
MEASUREMENT TYPE: Plant response rating, Soybean

>  <COMPOUND>
O=C1NCC(c2ccc(C(F)(F)F)cc2)C1C(=O)Nc1ccc(F)c(F)c1F (centres unmarked)

>  <REPORTED>
20

$$$$
>  <COMPOUND>
O=C1NCC(c2ccccc2)C1C(=O)Nc1ccccc1F (racemic)

>  <REPORTED>
8

$$$$
>  <COMPOUND>
O=C1NCC(c2cccc(Br)c2)C1C(=O)Nc1cccc(F)c1F (centres unmarked)

>  <REPORTED>
0

$$$$
>  <COMPOUND>
O=C1NCC(c2ccc(F)cc2)C1C(=O)Nc1cccc(F)c1F (racemic)

>  <REPORTED>
5

$$$$
>  <COMPOUND>
O=C1NCC(c2cccc(C(F)(F)F)c2)C1C(=O)Nc1ccc(F)c(F)c1F (centres unmarked)

>  <REPORTED>
15

$$$$
